Test: Evaluation of dissolution stability (content change on storage in dissolved state)
Assay type: physicochemical
Details: 1 mg/1 ml dissolved state, 40° C. and RH 75%, day 7
Where no end group is shown, it is not given here. [ ]: non-standard residue; d: D form. Pro(cis-4-F) = O=C(O)[C@@H]1C[C@H](F)CN1; Hyp = O=C(O)[C@@H]1C[C@@H](O)CN1

{"columns": ["Substance", "Day 7 content (%)"],
 "data": [
  ["Hyp-Gly-Gln-Asp (isopropyl ester)-Gly-Leu-Ala (isopropyl ester) [Example 114]", "32.74%"],
  ["Hyp-Gly-Gln-Glu-Leu-Leu-Ala ([Hyp]GQELLA) [Example 86]", "97.55%"],
  ["GLAGPK [Example 26]", "85.43%"],
  ["cis-4F Pro-Gly-Gln-Asp-Gly-Leu-Ala ([Pro(cis-4-F)]GQDGLA) [Example 51]", "49.31%"],
  ["Hyp-Gly-Gln-Asu-Gly-Leu (isopropyl ester) [Example 111]", "69.37%"]
]}

----------
Assay: Evaluation of dissolution stability (content change on storage in dissolved state)
Assay type: physicochemical
Details: 1 mg/1 ml dissolved state, 40° C. and RH 75%, day 7
*1 amine or outer side, *2 acyl side, *3 side chain or, on linkers, in order; H or OH if unused. Primed or numbered codes have the meaning given here. Where no end group is shown, it is not given here. [ ]: non-standard residue; d: D form. Pro(trans-4-NH2) = O=C([C@@H]1C[C@@H](N[*:3])CN1[*:1])[*:2]; Pro(4,4-F2) = O=C(O)[C@@H]1CC(F)(F)CN1; Asu′ = aspartimide (aminosuccinimide); Hyp = O=C(O)[C@@H]1C[C@@H](O)CN1; dHyp = O=C(O)[C@H]1C[C@H](O)CN1; Aib = CC(C)(N)C(=O)O
Under this convention, t denotes Day 7 content (%) strictly below 70% and f denotes Day 7 content (%) at or above 70%.

{"columns": ["Substance", "Discrete Label"],
 "data": [
  ["Hyp-Gly-Gln-Asp-Gly ([Hyp]GQDG) [Example 10]", "f"],
  ["Hyp-Gly-Gln-Leu-Leu ([Hyp]GQLL) [Example 121]", "f"],
  ["trans-4NH2-Pro-Gly-Gln-Asp-Gly-Leu-Ala ([Pro(trans-4-NH2)]GQDGLA) [Example 52]", "t"],
  ["Hyp-Gly-Gln-Asp-Ala ([Hyp]GQDA) [Example 33]", "f"],
  ["Hyp-Gly-Gln-Ala-Val-Leu ([Hyp]GQAVL) [Example 124]", "f"],
  ["PGQDGLA [Example 78]", "f"],
  ["D Hyp-Gly-Gln-Asp-Gly-Leu-Ala ([dHyp]GQDGLA) [Example 50]", "t"],
  ["Hyp-Gly-Gln-Asp-Aib-Leu-Ala ([Hyp]GQD[Aib]LA) [Example 83]", "f"],
  ["trans-4NH2-Pro-Gly-Gln-Asp-Gly-Leu ([Pro(trans-4-NH2)]GQDGL) [Example 47]", "t"],
  ["Hyp-Gly-Gln-Asp (isopropyl ester)-Gly (isopropyl ester) [Example 110]", "f"],
  ["Gln-Asu-Gly-Leu-Ala-Gly-Pro-Lys (Q[Asu′]GLAGPK) [Example 104]", "f"],
  ["4,4-difluoro-Pro-Gly-Gln-Asp-Gly ([Pro(4,4-F2)]GQDG) [Example 43]", "t"]
]}

----------
Test: Evaluation of dissolution stability (content change on storage in dissolved state)
Format: physicochemical
Conditions: 1 mg/1 ml dissolved state, 40° C. and RH 75%, day 3
*1 amine or outer side, *2 acyl side, *3 side chain or, on linkers, in order; H or OH if unused. Primed or numbered codes have the meaning given here. Where no end group is shown, it is not given here. [ ]: non-standard residue; d: D form. Pro(trans-4-NH2) = O=C([C@@H]1C[C@@H](N[*:3])CN1[*:1])[*:2]; Pro(4-methylene) = C=C1CN[C@H](C(=O)O)C1; Asu′ = aspartimide (aminosuccinimide); Hyp = O=C(O)[C@@H]1C[C@@H](O)CN1; dHyp = O=C(O)[C@H]1C[C@H](O)CN1
// values below are reported Day 3 content (%)
Endpoint Name: Day 3 content (%)

{"columns": ["Substance", "Readout Value"],
 "data": [
  ["Hyp-Gly-Gln-Asp-Leu-Leu-Ala ([Hyp]GQDLLA) [Example 38]", "88.19%"],
  ["Hyp-Gly-Gln-Ala-Val ([Hyp]GQAV) [Example 119]", "96.18%"],
  ["QEGLAG [Example 70]", "88.52%"],
  ["Hyp-Gly-Gln-Asu-Gly-Leu-Ala ([Hyp]GQ[Asu′]GLA) [Example 102]", "85.07%"],
  ["Hyp-Gly-Gln-Asu-Gly-Leu-Ala-Gly ([Hyp]GQ[Asu′]GLAG) [Example 103]", "96.90%"],
  ["trans-4NH2-Pro-Gly-Gln-Asp-Gly-Leu-Ala ([Pro(trans-4-NH2)]GQDGLA) [Example 52]", "74.65%"],
  ["Hyp-Gly-Gln-Leu-Val-Leu ([Hyp]GQLVL) [Example 99]", "99.28%"],
  ["D Hyp-Gly-Gln-Asp-Gly-Leu-Ala ([dHyp]GQDGLA) [Example 50]", "80.15%"],
  ["Hyp-Gly-Leu-Ala-Gly-Pro-Lys ([Hyp]GLAGPK) [Example 27]", "98.15%"],
  ["Hyp-Gly-Gln-Glu-Leu-Leu-Ala ([Hyp]GQELLA) [Example 86]", "97.77%"],
  ["Hyp-Gly-Gln-Asp-Val-Leu [Example 22] ([Hyp]GQDVL)", "83.10%"],
  ["Hyp-Gly-Gln-Asp-Gly-Leu (isopropyl ester) [Example 107]", "65.41%"],
  ["Hyp-Gly-Gln-Asp-Gly-D Leu-Ala ([Hyp]GQDG[dL]A) [Example 65]", "86.96%"],
  ["4-methylene-Pro-Gly-Gln-Asp-Gly-Leu ([Pro(4-methylene)]GQDGL) [Example 49]", "79.49%"]
]}

----------
Test: Evaluation of dissolution stability (content change on storage in dissolved state)
Type: physicochemical
Settings: 1 mg/1 ml dissolved state, 40° C. and RH 75%, initial
*1 amine or outer side, *2 acyl side, *3 side chain or, on linkers, in order; H or OH if unused. Primed or numbered codes have the meaning given here. Where no end group is shown, it is not given here. [ ]: non-standard residue; d: D form. Pro(trans-4-NH2) = O=C([C@@H]1C[C@@H](N[*:3])CN1[*:1])[*:2]; Pro(4,4-F2) = O=C(O)[C@@H]1CC(F)(F)CN1; Asu′ = aspartimide (aminosuccinimide); Hyp = O=C(O)[C@@H]1C[C@@H](O)CN1
Listing of recorded Initial content (%) by entry.

{"columns": ["Substance", "Value Unit", "Initial content (%)"],
 "data": [
  ["trans-4NH2-Pro-Gly-Gln-Asp-Gly-Leu-Ala ([Pro(trans-4-NH2)]GQDGLA) [Example 52]", "%", 96.55],
  ["Hyp-Gly-Gln-Asp-Gly-Leu-Ala-Gly ([Hyp]GQDGLAG) [Example 15]", "%", 91.84],
  ["Hyp-Gly-Gln-D Asp-Leu ([Hyp]GQ[dD]L) [Example 125]", "%", 98.28],
  ["Hyp-Gly-Gln-Leu-Val-Leu ([Hyp]GQLVL) [Example 99]", "%", 99.45],
  ["Hyp-Gly-Gln-His-Gly-Leu-Ala ([Hyp]GQHGLA) [Example 80]", "%", 98.44],
  ["Hyp-Gly-Gln-Asp (isopropyl ester)-Gly (isopropyl ester) [Example 110]", "%", 98.00],
  ["Hyp-Gly-Gln-Ala-Leu-Leu ([Hyp]GQALL) [Example 123]", "%", 99.26],
  ["Hyp-Gly-Gln-Leu-Leu ([Hyp]GQLL) [Example 121]", "%", 99.39],
  ["4,4-difluoro-Pro-Gly-Gln-Asp-Gly-Leu-Ala ([Pro(4,4-F2)]GQDGLA) [Example 53]", "%", 94.88],
  ["Hyp-Gly-Gln-Asp-Gly-D Leu-Ala ([Hyp]GQDG[dL]A) [Example 65]", "%", 95.64],
  ["Hyp-Gly-Gln-Asp-Leu ([Hyp]GQDL) [Example 32]", "%", 98.05],
  ["Hyp-Gly-Gln-Asp-Gly-Leu-Ala ([Hyp]GQDGLA) [Example 12]", "%", 95.31],
  ["Hyp-Gly-Gln-D Asp-Gly-Leu ([Hyp]GQ[dD]GL) [Example 61]", "%", 92.80],
  ["Hyp-Gly-Leu-Ala-Gly-Pro-Lys ([Hyp]GLAGPK) [Example 27]", "%", 98.24],
  ["Hyp-Gly-Gln-Asu-Gly (isopropyl ester) [Example 109]", "%", 85.34],
  ["Hyp-Gly-Gln-Asn-Gly-Leu-Ala ([Hyp]GQNGLA) [Example 79]", "%", 94.36],
  ["Hyp-Val-Gln-Asp-Gly ([Hyp]VQDG) [Example 74]", "%", 98.01],
  ["PGQDGL [Example 77]", "%", 92.01],
  ["Hyp-Gly-Gln-Asp-Gly-Leu-D Ala ([Hyp]GQDGL[dA]) [Example 66]", "%", 96.42],
  ["Hyp-Gly-Gln-Glu-Gly-Leu ([Hyp]GQEGL) [Example 68]", "%", 98.71],
  ["Hyp-Gly-Gln-Asu-Gly-Leu-Ala ([Hyp]GQ[Asu′]GLA) [Example 102]", "%", 92.47]
]}
